Numbers sourced from patent EP4803513A1.

test system: T47D cells; test: Cell antiproliferative activity assay (CCK-8), T47D; format: cell-based; settings: Homo sapiens, 72 h, breast cancer cell line T47D, incubation for 3 days
Measured attribute: IC50

Here are 3 molecules together with their reported answers.
Cc1nccnc1-c1cc(C(C)C)c2nc(Nc3ccc(P(C)(C)=O)cc3)ncc2c1 [II-11]    ≤ 500 nM
Cc1nn(C)cc1Nc1ncc2cc(-c3c[nH]nc3C)cc(C(C)C)c2n1 [III-88]    500 to 1000 nM
Cc1nn(CCO)cc1Nc1ncc2cc(-c3c(C)ncnc3C)cc(C3CC3)c2n1 [I-147]    500 to 1000 nM

Field: next molecule
**Q:** In one line, give reported IC50 of the entry Cc1nn(CCCO)cc1Nc1ncc2cc(-c3cccnc3)cc(C(C)C)c2n1 [I-53] .
**A:** ≤ 500 nM
